Reference source: ChEMBL document CHEMBL1127007

Target: Type-1 angiotensin II receptor (Oryctolagus cuniculus)
Sequence (P34976 whole entry): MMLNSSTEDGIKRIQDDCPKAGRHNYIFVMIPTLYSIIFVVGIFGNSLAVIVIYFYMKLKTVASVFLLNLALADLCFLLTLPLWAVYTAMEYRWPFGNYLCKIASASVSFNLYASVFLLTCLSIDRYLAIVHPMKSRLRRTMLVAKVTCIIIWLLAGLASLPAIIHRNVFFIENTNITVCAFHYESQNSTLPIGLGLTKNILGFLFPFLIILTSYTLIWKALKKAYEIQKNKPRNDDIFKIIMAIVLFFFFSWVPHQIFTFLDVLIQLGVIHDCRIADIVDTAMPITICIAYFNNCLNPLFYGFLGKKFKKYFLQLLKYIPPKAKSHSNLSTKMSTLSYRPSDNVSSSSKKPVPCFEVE
Assay: Ability to displace [125I]Sar1-Ile8-AII from angiotensin II receptor, type 1 in rabbit aorta in presence of 0.2% bovine serum albumin (BSA) was determined in vitro
Assay type: tissue-based
endpoint name: pIC50
Remember, pIC50 is on a log scale: it is -log10 of the molar concentration.

Record request: pIC50 value, item CCCCc1nc2ccc(NC(=O)OCc3ccccc3)cc2c(=O)n1Cc1ccc(-c2ccccc2-c2nn[nH]n2)cc1
8.37

Follow-up entry: CCCCc1nc2ccc(C(C)C)cc2c(=O)n1Cc1ccc(-c2ccccc2-c2nn[nH]n2)cc1
8.30

Follow-up entry: CCCCc1nc2ccc(N(C)C(=O)OCc3ccccc3)cc2c(=O)n1Cc1ccc(-c2ccccc2-c2nnn[nH]2)cc1
9.08

Follow-up entry: CCCCc1nc2ccc(SC)cc2c(=O)n1Cc1ccc(-c2ccccc2-c2nn[nH]n2)cc1
8.15

Follow-up entry: CCCCc1nc2ccc([S+](C)[O-])cc2c(=O)n1Cc1ccc(-c2ccccc2-c2nn[nH]n2)cc1 (stereo unspecified)
9.00

Follow-up entry: CCCCc1nc2ccc(N(C)C(=O)OCC(C)C)cc2c(=O)n1Cc1ccc(-c2ccccc2-c2nnn[nH]2)cc1
8.47
